I'd appreciate it if you could supply IC50 values for the items below.
- Target system: mu opioid receptor (MOR) (Homo sapiens, UniProt P35372)
- Construct: host or cells: U2OS (Discover X OPRMu1-U2OS, PathHunter)
- Sequence (P35372 whole entry): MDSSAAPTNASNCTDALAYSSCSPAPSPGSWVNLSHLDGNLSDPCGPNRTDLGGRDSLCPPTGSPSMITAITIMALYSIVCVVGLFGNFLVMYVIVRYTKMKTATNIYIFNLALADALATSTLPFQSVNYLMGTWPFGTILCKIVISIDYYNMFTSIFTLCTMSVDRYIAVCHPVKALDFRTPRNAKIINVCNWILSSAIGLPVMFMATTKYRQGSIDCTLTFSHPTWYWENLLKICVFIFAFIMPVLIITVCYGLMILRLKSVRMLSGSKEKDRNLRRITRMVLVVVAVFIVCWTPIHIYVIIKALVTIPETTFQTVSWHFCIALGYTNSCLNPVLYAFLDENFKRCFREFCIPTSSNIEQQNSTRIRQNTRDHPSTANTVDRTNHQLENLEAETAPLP
- Assay details: OPRMu1 Discover X β-arrestin Assay, antagonist mode (U2OS cells, DAMGO EC80 challenge)
- Format: cell-based

For orientation, consider the following solved cases.
| Molecule | IC50 |
| --- | --- |
| CCc1cc(-c2cc[nH]n2)c2nc(N3CCNC[C@H]3C)c(-c3ccn(C)n3)c(C)c2c1 | > 1000 nM |
| CCc1cc(F)c2nc(N3CCN(C(=O)[C@H](Cc4ccccc4)N(C)C)C[C@H]3C)c(-c3nc(C)no3)c(C)c2c1 | > 1000 nM |
| CCc1cc(F)c2nc(N3CCN(C(=O)[C@@H](C)N4CC[C@@H](F)C4)C[C@H]3C)c(-c3nc(C)no3)c(C)c2c1 | 100 to 1000 nM |
| CCc1cc(F)c2nc(N3CCN(/C(=N/C#N)NC[C@H](Cc4ccc(O)cc4)N(C)C)C[C@H]3C)c(-c3nc(C)no3)c(C)c2c1 | 100 to 1000 nM |

Give me IC50 for each of these molecules, listed below.
1. CCc1cc(F)c2nc(N3CCC(N[C@H]4CCCC(F)(F)C4)CC3)c(-c3cc(C)n(C)n3)c(C)c2c1
2. CCc1cc(F)c2nc(N3CCN(C(=O)[C@H]4CCCCN4C)C[C@H]3C)c(-c3nc(C)no3)c(C)c2c1

["10 to 100 nM", "> 1000 nM"]

For CCc1cc(F)c2nc(N3CC[C@@H]4[C@@H](CCN4C[C@@H]4CCOC4)C3)c(-c3ccn(C)n3)c(C)c2c1 (stereo in doubt) on mu opioid receptor (MOR) (Homo sapiens, UniProt P35372), measured IC50 was > 1000 nM
